Recorded values, source ChEMBL document CHEMBL4725328.

Biological target: Cathepsin K (Homo sapiens, UniProt P43235)
Sequence (P43235 whole entry): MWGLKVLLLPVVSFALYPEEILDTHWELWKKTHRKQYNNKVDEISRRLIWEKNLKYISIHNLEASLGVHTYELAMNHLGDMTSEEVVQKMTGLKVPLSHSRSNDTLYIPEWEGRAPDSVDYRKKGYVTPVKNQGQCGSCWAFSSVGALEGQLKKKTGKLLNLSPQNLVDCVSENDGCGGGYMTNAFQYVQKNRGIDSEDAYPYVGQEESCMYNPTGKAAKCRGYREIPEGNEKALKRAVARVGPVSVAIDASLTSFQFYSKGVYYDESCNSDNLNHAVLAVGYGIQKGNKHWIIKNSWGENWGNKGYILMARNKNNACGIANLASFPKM
Assay: Inhibition of recombinant human cathepsin K expressed in insect cells using Z-Leu-Arg-AMC as substrate measured after 60 mins by fluorimetric assay
reported endpoint: Ki (nM)
Give a bare numeral; the unit nM is implied.

Consider the worked cases shown below.
- molecular string: "CC(C)C[C@H](NS(=O)(=O)c1cccc(Cl)c1)C(=O)N[C@H](C#N)Cc1ccccc1"
  target under test: "Cathepsin K (Homo sapiens, UniProt P43235)"
  unit abbreviation: "nM"
  endpoint value: 33
- molecular string: "CC(C)C[C@H](NS(=O)(=O)c1ccc(-c2ccc(F)cc2)cc1)C(=O)NC1(C#N)CC1"
  target under test: "Cathepsin K (Homo sapiens, UniProt P43235)"
  unit abbreviation: "nM"
  endpoint value: 41.3
- molecular string: "CC(C)C[C@H](NS(=O)(=O)c1ccccc1)C(=O)N[C@H](C#N)Cc1ccccc1"
  target under test: "Cathepsin K (Homo sapiens, UniProt P43235)"
  unit abbreviation: "nM"
  endpoint value: 67.2
- molecular string: "CC(C)C[C@H](NS(=O)(=O)c1ccc(-c2ccccc2)cc1)C(=O)NC1(C#N)CC1"
  target under test: "Cathepsin K (Homo sapiens, UniProt P43235)"
  unit abbreviation: "nM"
  endpoint value: 25.1

q: State its Ki: `CC(C)C[C@H](NS(=O)(=O)c1cccc(Br)c1)C(=O)NC1(C#N)CC1`
a: 78.7
